Target: hCA IX (Homo sapiens)
Listed here are compounds together with their documented pKi.
Lab note: report pKi as minus log10 of the concentration in molar units, number only.

CC(=O)N1CC(Nc2ccc(S(N)(=O)=O)cc2)=CC1=O: 6.53
Cc1cc(O)cc(=O)n1CCS(N)(=O)=O: 7.10
CC(=O)N1CC(Nc2cccc(S(N)(=O)=O)c2)=CC1=O: 7.03
COC(=O)c1cn(-c2ccc(S(N)(=O)=O)cc2)cc2c(=O)[nH]nc1-2: 6.50

Please find the next compound below.
Data request: Would you kindly share the measured pKi for `COC(=O)c1cn(CCS(N)(=O)=O)cc2c(=O)[nH]nc1-2` ?
Data returned: 7.01

====

Dear all, this message contains Ki results, target or system γ-CA from Porphyromonas gingivalis (PgiCAγ) (Porphyromonas gingivalis).

Recorded Ki, per entry:
COC(=O)c1cn(CCc2ccc(S(N)(=O)=O)cc2)cc2c(=O)[nH]nc1-2: 0.0961 µM
COC(=O)c1cn(CCS(N)(=O)=O)cc2c(=O)[nH]nc1-2: 0.783 µM
NS(=O)(=O)CCNC=C1C(=O)Oc2ccccc2C1=O: 0.0843 µM
CC(=O)N1CC(Nc2cccc(S(N)(=O)=O)c2)=CC1=O: 0.09 µM
COC(=O)c1cn(CC(=O)Nc2ccc(S(N)(=O)=O)cc2)cc2c(=O)[nH]nc1-2: 0.668 µM
COC(=O)c1cn(-c2cccc(S(N)(=O)=O)c2)cc2c(=O)[nH]nc1-2: 0.637 µM
CC(=O)N1CC(Nc2ccc(S(N)(=O)=O)cc2)=CC1=O: 0.0831 µM
COC(=O)c1cn(-c2ccc(S(N)(=O)=O)cc2)cc2c(=O)[nH]nc1-2: 0.091 µM

Data request: // query Ki value for entry `Cc1cc(O)cc(=O)n1CCS(N)(=O)=O`
Data returned: 0.0956 µM

Data request: Try this molecule too: CC12CC(c3ccccc3O1)C(C(N)=O)C(=O)N2CCc1ccc(S(N)(=O)=O)cc1 (stereo not shown)
Data returned: 0.202 µM

====

Catalogue of compounds with associated Ki
Biological target: β-CA from Burkholderia pseudomallei (BpsCAβ) (Burkholderia pseudomallei)
Sequence (Q63Y17 1-256): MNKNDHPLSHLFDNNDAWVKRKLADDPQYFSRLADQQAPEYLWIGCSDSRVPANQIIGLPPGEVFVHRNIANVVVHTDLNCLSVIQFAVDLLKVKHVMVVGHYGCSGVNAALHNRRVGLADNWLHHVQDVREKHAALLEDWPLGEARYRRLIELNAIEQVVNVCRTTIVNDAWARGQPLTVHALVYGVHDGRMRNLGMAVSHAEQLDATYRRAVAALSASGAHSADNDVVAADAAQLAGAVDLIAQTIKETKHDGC
Conditions: read-out: KI BpsCAβ
Please don't drop the unit; write it after the number.

Example compounds with recorded Ki:
COC(=O)c1cn(CC(=O)Nc2ccc(S(N)(=O)=O)cc2)cc2c(=O)[nH]nc1-2: 0.236 µM
CC(=O)N1CC(Nc2ccc(S(N)(=O)=O)cc2)=CC1=O: 0.664 µM
CC(=O)N1CC(Nc2cccc(S(N)(=O)=O)c2)=CC1=O: 2.96 µM

Data request: Query: Ki; subject: `COC(=O)c1cn(-c2cccc(S(N)(=O)=O)c2)cc2c(=O)[nH]nc1-2`
Data returned: 0.785 µM

Data request: Thanks! And `COC(=O)c1cn(CCc2ccc(S(N)(=O)=O)cc2)cc2c(=O)[nH]nc1-2` ?
Data returned: 0.683 µM

Data request: Can you check `NS(=O)(=O)CCNC=C1C(=O)Oc2ccccc2C1=O` next?
Data returned: 0.789 µM

Data request: Continue with CC12CC(c3ccccc3O1)C(C(N)=O)C(=O)N2CCc1ccc(S(N)(=O)=O)cc1 (stereo not shown)
Data returned: 0.212 µM

====

Target: BpsCAγ (Burkholderia pseudomallei)
Sequence (Q63SQ4 1-174): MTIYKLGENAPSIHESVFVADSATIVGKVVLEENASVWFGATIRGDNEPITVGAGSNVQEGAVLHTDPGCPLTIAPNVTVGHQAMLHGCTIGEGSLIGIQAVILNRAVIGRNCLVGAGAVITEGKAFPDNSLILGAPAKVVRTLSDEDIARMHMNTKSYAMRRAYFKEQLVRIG
Settings: read-out: KI BpsCAγ
Item-by-item account of Ki
A number alone suffices; assume nM.

Consider the following illustrative entries.
COC(=O)c1cn(-c2cccc(S(N)(=O)=O)c2)cc2c(=O)[nH]nc1-2 [Compound 1c]: 614
COC(=O)c1cn(CC(=O)Nc2ccc(S(N)(=O)=O)cc2)cc2c(=O)[nH]nc1-2 [Compound 1f]: 2180
COC(=O)c1cn(CCS(N)(=O)=O)cc2c(=O)[nH]nc1-2 [Compound 1a]: 913
CC12CC(c3ccccc3O1)C(C(N)=O)C(=O)N2CCc1ccc(S(N)(=O)=O)cc1 (stereo not shown) [Compound 1k]: 952
Cc1cc(O)cc(=O)n1CCS(N)(=O)=O [Compound 1i]: 192

Data request: Data request, read-out Ki, for COC(=O)c1cn(-c2ccc(S(N)(=O)=O)cc2)cc2c(=O)[nH]nc1-2 [Compound 1b]
Data returned: 513

====

Heads up, these compounds all have Ki values measured for γ-CA from E. coli (Escherichia coli, UniProt P0A9W9).
Include the unit right after the number.

Cc1cc(O)cc(=O)n1CCS(N)(=O)=O [Compound 1i]: 0.0927 µM
NS(=O)(=O)CCNC=C1C(=O)Oc2ccccc2C1=O [Compound 1j]: 0.0671 µM
CC(=O)N1CC(Nc2ccc(S(N)(=O)=O)cc2)=CC1=O [Compound 1g]: 0.205 µM

Data request: I am curious: what Ki value has been reported for CC(=O)N1CC(Nc2cccc(S(N)(=O)=O)c2)=CC1=O [Compound 1h] ?
Data returned: 0.524 µM

Data request: For COC(=O)c1cn(CCS(N)(=O)=O)cc2c(=O)[nH]nc1-2 [Compound 1a] then?
Data returned: 0.0618 µM

Data request: Consider next the compound COC(=O)c1cn(-c2ccc(S(N)(=O)=O)cc2)cc2c(=O)[nH]nc1-2 [Compound 1b] in the same way.
Data returned: 0.0578 µM

Data request: Another: COC(=O)c1cn(-c2cccc(S(N)(=O)=O)c2)cc2c(=O)[nH]nc1-2 [Compound 1c]
Data returned: 0.0791 µM

====

metric: melting point

Solved entries:
COC(=O)c1cn(-c2ccc(S(N)(=O)=O)cc2)cc2c(=O)[nH]nc1-2: > 300 °C
COC(=O)c1cn(-c2cccc(S(N)(=O)=O)c2)cc2c(=O)[nH]nc1-2: > 300 °C

Data request: Which melting point is reported for this compound? CC12CC(c3ccccc3O1)C(C(N)=O)C(=O)N2CCc1ccc(S(N)(=O)=O)cc1 (stereo not shown)
Data returned: 225 to 227 °C

Data request: Now give it for `NS(=O)(=O)CCNC=C1C(=O)Oc2ccccc2C1=O` too.
Data returned: 197 to 199 °C

====

Molecular target: β-CA from Vibrio cholerae (VhCAβ) (Vibrio cholerae, UniProt A0A086SLX8)
Sequence (A0A086SLX8 entry or part of it): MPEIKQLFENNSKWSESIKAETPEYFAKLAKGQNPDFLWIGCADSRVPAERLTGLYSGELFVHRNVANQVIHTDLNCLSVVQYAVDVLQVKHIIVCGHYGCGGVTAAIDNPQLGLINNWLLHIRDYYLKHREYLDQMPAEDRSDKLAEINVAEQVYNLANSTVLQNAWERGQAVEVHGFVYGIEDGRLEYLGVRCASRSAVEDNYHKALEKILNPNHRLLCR
Lab note: anything with Ki below 800 nM is marked fulfilled; values at 800 nM or higher are marked not fulfilled.

Solved cases (3 shown):
CC12CC(c3ccccc3O1)C(C(N)=O)C(=O)N2CCc1ccc(S(N)(=O)=O)cc1 (centres unmarked): fulfilled
NS(=O)(=O)CCNC=C1C(=O)Oc2ccccc2C1=O: fulfilled
COC(=O)c1cn(CCS(N)(=O)=O)cc2c(=O)[nH]nc1-2: not fulfilled

Data request: I wonder whether `COC(=O)c1cn(CCc2ccc(S(N)(=O)=O)cc2)cc2c(=O)[nH]nc1-2` has Ki below 800 nM. Can you tell?
Data returned: not fulfilled

Data request: Moving on to the next compound: `Cc1cc(O)cc(=O)n1CCS(N)(=O)=O`
Data returned: not fulfilled

====

Record set of Ki for target or system β-CA from Vibrio cholerae (VhCAβ) (Vibrio cholerae, UniProt A0A086SLX8).
The response must be a number in µM with no trailing unit.

A selection of reference data follows.
COC(=O)c1cn(-c2cccc(S(N)(=O)=O)c2)cc2c(=O)[nH]nc1-2: 0.913
CC(=O)N1CC(Nc2cccc(S(N)(=O)=O)c2)=CC1=O: 2.62
CC(=O)N1CC(Nc2ccc(S(N)(=O)=O)cc2)=CC1=O: 1.45
COC(=O)c1cn(-c2ccc(S(N)(=O)=O)cc2)cc2c(=O)[nH]nc1-2: 0.844

Data request: // returns reported Ki for input `COC(=O)c1cn(CC(=O)Nc2ccc(S(N)(=O)=O)cc2)cc2c(=O)[nH]nc1-2`
Data returned: 0.467

====

// values below are reported pKi
Molecular target: hCA XII (Homo sapiens)
Sequence (O43570 25-354): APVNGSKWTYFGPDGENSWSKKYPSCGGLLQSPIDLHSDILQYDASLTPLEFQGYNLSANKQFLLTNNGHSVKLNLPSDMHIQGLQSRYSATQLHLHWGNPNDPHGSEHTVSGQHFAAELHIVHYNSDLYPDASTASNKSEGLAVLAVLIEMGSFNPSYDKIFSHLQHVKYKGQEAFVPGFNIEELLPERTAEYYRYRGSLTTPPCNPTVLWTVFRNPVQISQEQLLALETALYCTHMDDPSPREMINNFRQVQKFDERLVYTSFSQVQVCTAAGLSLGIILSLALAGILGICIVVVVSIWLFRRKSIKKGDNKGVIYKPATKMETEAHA
Experiment: stopped-flow CO2 hydrase assay, hCA XII
Assay type: biochemical
Settings: stopped-flow CO2 hydrase assay; mean from 3 different assays
Keep it numeric: pKi is minus log10 of the concentration in mol/L.

Use these answered entries as a reference point.
COC(=O)c1cn(-c2cccc(S(N)(=O)=O)c2)cc2c(=O)[nH]nc1-2 [Compound 1c]: 6.84
COC(=O)c1cn(CC(=O)Nc2ccc(S(N)(=O)=O)cc2)cc2c(=O)[nH]nc1-2 [Compound 1f]: 6.32
COC(=O)c1cn(CCc2ccc(S(N)(=O)=O)cc2)cc2c(=O)[nH]nc1-2 [Compound 1e]: 6.40
CC12CC(c3ccccc3O1)C(C(N)=O)C(=O)N2CCc1ccc(S(N)(=O)=O)cc1 (stereo not shown) [Compound 1k]: 7.46
COC(=O)c1cn(CCS(N)(=O)=O)cc2c(=O)[nH]nc1-2 [Compound 1a]: 6.55
NS(=O)(=O)CCNC=C1C(=O)Oc2ccccc2C1=O [Compound 1j]: 6.55
CC(=O)N1CC(Nc2cccc(S(N)(=O)=O)c2)=CC1=O [Compound 1h]: 6.15
CC(=O)N1CC(Nc2ccc(S(N)(=O)=O)cc2)=CC1=O [Compound 1g]: 6.29
COC(=O)c1cn(-c2ccc(S(N)(=O)=O)cc2)cc2c(=O)[nH]nc1-2 [Compound 1b]: 6.45

Data request: Which pKi is reported for this compound? Cc1cc(O)cc(=O)n1CCS(N)(=O)=O [Compound 1i]
Data returned: 6.98
